Reported IC50 is given for each of the following compounds.
tgt: UniProtKB P11889
Sequence (P11889 28-333): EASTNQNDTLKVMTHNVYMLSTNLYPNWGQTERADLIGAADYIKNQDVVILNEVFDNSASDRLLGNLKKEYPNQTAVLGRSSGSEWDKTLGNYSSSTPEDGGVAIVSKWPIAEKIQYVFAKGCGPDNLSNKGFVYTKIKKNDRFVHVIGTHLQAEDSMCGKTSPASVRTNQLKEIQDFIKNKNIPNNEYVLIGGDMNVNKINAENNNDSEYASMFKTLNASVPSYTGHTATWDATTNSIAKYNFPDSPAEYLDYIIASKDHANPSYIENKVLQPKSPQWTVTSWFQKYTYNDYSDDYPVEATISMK
test: biochemical
condition-label: IC50, paranitrophenylphosphoryl-choline substrate, pH 7.2, 37° C., 24 h
Protocol: Paranitrophenylphosphoryl-choline was dissolved to a final concentration of 1 mg/ml in 0.1 M Tris at pH 7.2 and 10 mM […]. […] The optical density is a measure for the quantity of cleaved substrate. Dose-effect curves were used to determine the concentration at which the enzyme activity is inhibited by 50% (IC50).
Express the reported value numerically, then name its unit.

compound: CCCCCCCCCCC=NNC(=N)N [Chloride, reference compound]
IC50: 3.53 µM

Now, please, on to the next compound.
-- ask I have this compound here, CCCCCCCCCCC=NNC(=N)N [Oenanthate, undecylideneaminoguanidine oenanthate] , and I need its recorded IC50.
-- reply 3.31 µM

Recorded values, source patent US7078566B2.
